Exercise: for every item that follows, state its recorded EC50.
Molecular target: UniProt P10276
Sequence (P10276 whole entry): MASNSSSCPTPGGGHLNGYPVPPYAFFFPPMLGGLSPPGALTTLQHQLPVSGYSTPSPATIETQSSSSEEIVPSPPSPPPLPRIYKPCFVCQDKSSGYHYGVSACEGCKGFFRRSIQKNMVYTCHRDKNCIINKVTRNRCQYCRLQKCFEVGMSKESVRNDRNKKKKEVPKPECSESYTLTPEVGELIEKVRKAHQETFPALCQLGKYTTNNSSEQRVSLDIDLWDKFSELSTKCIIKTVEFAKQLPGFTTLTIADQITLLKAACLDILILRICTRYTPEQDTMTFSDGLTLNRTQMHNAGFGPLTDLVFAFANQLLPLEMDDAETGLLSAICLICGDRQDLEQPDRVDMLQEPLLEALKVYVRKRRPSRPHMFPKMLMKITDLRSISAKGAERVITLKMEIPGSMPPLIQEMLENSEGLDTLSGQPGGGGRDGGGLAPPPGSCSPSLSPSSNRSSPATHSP
Assay: Agonist activity for retinoic acid receptor RAR alpha in transcriptional activation assay
Format: functional
Answers are plain numbers, in nM.

# chemical-structure, units-of-measure, EC50
records = [
    ("C/C(=C\\c1ncc(C(=O)O)s1)c1ccc2c(c1)C(C)(C)CCC2(C)C", "nM", 210),
]

Next, consider the following molecule.
Prompt: Specify EC50 for C/C(=C\c1ccc(C(=O)O)s1)c1ccc2c(c1)C(C)(C)CCC2(C)C and stop.
Completion: 690

---

target: UniProtKB P28702; assay: Agonist activity for retinoic acid receptor RXR beta in transcriptional activation assay
Sequence (P28702 whole entry): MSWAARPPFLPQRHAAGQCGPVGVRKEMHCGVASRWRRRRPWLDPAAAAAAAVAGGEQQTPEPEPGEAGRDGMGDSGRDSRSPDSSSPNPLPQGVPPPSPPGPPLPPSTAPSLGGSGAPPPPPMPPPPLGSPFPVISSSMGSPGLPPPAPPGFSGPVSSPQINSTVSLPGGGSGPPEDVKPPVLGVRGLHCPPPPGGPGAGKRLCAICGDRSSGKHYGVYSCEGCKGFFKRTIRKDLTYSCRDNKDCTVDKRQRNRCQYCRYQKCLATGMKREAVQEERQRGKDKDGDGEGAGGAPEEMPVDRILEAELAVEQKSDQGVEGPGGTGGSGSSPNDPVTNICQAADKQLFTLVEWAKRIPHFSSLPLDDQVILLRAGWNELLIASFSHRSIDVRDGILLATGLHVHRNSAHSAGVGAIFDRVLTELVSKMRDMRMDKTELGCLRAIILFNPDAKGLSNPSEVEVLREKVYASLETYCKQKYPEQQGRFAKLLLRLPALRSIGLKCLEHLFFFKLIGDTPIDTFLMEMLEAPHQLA
Exercise: state measured pEC50 for each of the molecules provided.
Answers are plain numbers, as −log10 of the molar value.

Here is how some molecules turned out for pEC50.
# chemical-structure, target-or-test-system, pEC50
rows = [
    ("C/C(=C\\c1ccc(C(=O)O)s1)c1cc2c(cc1C)C(C)(C)CCC2(C)C", "UniProtKB P28702", 7.64),
    ("C/C(=C\\c1ncc(C(=O)O)s1)c1ccc2c(c1)C(C)(C)CCC2(C)C", "UniProtKB P28702", 6.68),
    ("C/C(=C\\c1nc(C(=O)O)c[nH]1)c1cc2c(cc1C)C(C)(C)CCC2(C)C", "UniProtKB P28702", 6.89),
    ("C/C(=C\\c1ncc(C(=O)O)s1)c1cc2c(cc1C)C(C)(C)CCC2(C)C", "UniProtKB P28702", 8.52),
    ("C/C(=C\\c1ncc(C(=O)O)n1S(=O)(=O)N(C)C)c1cc2c(cc1C)C(C)(C)CCC2(C)C", "UniProtKB P28702", 6.74),
    ("C/C(=C\\c1cc(C(=O)O)cs1)c1cc2c(cc1C)C(C)(C)CCC2(C)C", "UniProtKB P28702", 6.74),
]

Prompt: Please give the documented pEC50 of C/C(=C\c1ccc(C(=O)O)s1)c1ccc2c(c1)C(C)(C)CCC2(C)C
Completion: 5.64

---

biological target: Retinoic acid receptor RXR-alpha (Homo sapiens); experiment: Agonist activity for retinoic acid receptor RXR alpha in transcriptional activation assay; type: functional
Sequence (P19793 whole entry): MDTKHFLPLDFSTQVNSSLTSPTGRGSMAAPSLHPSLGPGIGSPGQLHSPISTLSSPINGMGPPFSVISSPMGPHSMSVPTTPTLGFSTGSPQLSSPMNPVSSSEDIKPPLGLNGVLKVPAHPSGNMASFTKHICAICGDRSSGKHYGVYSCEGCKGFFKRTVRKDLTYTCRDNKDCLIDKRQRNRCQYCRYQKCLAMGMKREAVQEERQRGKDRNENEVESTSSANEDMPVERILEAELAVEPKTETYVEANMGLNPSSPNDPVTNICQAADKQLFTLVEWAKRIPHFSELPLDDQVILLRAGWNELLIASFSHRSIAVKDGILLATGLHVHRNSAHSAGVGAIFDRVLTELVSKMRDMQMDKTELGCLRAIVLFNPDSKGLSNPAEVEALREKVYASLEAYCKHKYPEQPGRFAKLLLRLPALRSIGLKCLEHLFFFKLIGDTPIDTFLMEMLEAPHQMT
metric-name: pEC50
Answers are plain numbers, as −log10 of the molar value.

Examples from the recorded data:
# chemical-structure, assay-result
rows = [
    ("C/C(=C\\c1ncc(C(=O)O)s1)c1ccc2c(c1)C(C)(C)CCC2(C)C", 6.68),
    ("C/C(=C\\c1ncc(C(=O)O)n1S(=O)(=O)N(C)C)c1cc2c(cc1C)C(C)(C)CCC2(C)C", 7.23),
    ("C/C(=C\\c1ccc(C(=O)O)s1)c1ccc2c(c1)C(C)(C)CCC2(C)C", 5.62),
    ("C/C(=C\\c1nc(C(=O)O)c[nH]1)c1cc2c(cc1C)C(C)(C)CCC2(C)C", 7.05),
    ("C/C(=C\\c1ncc(C(=O)O)s1)c1cc2c(cc1C)C(C)(C)CCC2(C)C", 8.40),
    ("C/C(=C\\c1cc(C(=O)O)cs1)c1cc2c(cc1C)C(C)(C)CCC2(C)C", 6.67),
]

Let us move to another entry and its pEC50.
Prompt: Please give measured pEC50 of the following entry: C/C(=C\c1ccc(C(=O)O)s1)c1cc2c(cc1C)C(C)(C)CCC2(C)C
Completion: 7.46
